Measured binding signal (PBM E-score (-0.5 to 0.5)), listed per entry.
systemUnderTest: dmd-4 (C27C12.6) (Caenorhabditis elegans) (UniProt Q18248)
Sequence (Q18248 1-114): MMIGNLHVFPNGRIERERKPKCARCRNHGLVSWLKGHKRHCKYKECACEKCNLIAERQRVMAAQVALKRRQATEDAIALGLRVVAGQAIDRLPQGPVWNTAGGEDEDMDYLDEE

Here's what some known entries look like.
>>> observed("CATGTATC (double strand) [8-mer CATGTATC]")
0.483
>>> observed("AAGATACA (double strand) [8-mer AAGATACA]")
0.477
>>> observed("ATTGATAC (double strand) [8-mer ATTGATAC]")
0.487
>>> observed("TAGATACA (double strand) [8-mer TAGATACA]")
0.491
>>> observed("AAAGTATC (double strand) [8-mer AAAGTATC]")
0.492

Input: Fill: binding signal (PBM E-score (-0.5 to 0.5)) (dmd-4 (C27C12.6) (Caenorhabditis elegans) (UniProt Q18248)) for this sequence ATGATACA (double strand) [8-mer ATGATACA]
Output: 0.485

Input: Send back dmd-4 (C27C12.6) (Caenorhabditis elegans) (UniProt Q18248) binding signal (PBM E-score (-0.5 to 0.5)) of GATACATA (double strand) [8-mer GATACATA] only.
Output: 0.482

Input: Enter binding signal (PBM E-score (-0.5 to 0.5)) (test system dmd-4 (C27C12.6) (Caenorhabditis elegans) (UniProt Q18248)) for TGATACAA (double strand) [8-mer TGATACAA]
Output: 0.489

Input: Report binding signal (PBM E-score (-0.5 to 0.5)) on dmd-4 (C27C12.6) (Caenorhabditis elegans) (UniProt Q18248) for this entry: AATGTATC (double strand) [8-mer AATGTATC]
Output: 0.494

Input: Find the measured binding signal (PBM E-score (-0.5 to 0.5)) of TGTATCAA (double strand) [8-mer TGTATCAA] with dmd-4 (C27C12.6) (Caenorhabditis elegans) (UniProt Q18248) as test system.
Output: 0.496

Input: Specify binding signal (PBM E-score (-0.5 to 0.5)) for AGATACAT (double strand) [8-mer AGATACAT] , system dmd-4 (C27C12.6) (Caenorhabditis elegans) (UniProt Q18248).
Output: 0.492

Input: State recorded binding signal (PBM E-score (-0.5 to 0.5)) with dmd-4 (C27C12.6) (Caenorhabditis elegans) (UniProt Q18248), entry AATGATAC (double strand) [8-mer AATGATAC] , no comment.
Output: 0.482

Input: State binding signal (PBM E-score (-0.5 to 0.5)) (dmd-4 (C27C12.6) (Caenorhabditis elegans) (UniProt Q18248)) of ATGTATCA (double strand) [8-mer ATGTATCA] .
Output: 0.493

Input: Please indicate recorded binding signal (PBM E-score (-0.5 to 0.5)) of ATTGTATC (double strand) [8-mer ATTGTATC] measured with dmd-4 (C27C12.6) (Caenorhabditis elegans) (UniProt Q18248).
Output: 0.491

Input: Provide binding signal (PBM E-score (-0.5 to 0.5)), system dmd-4 (C27C12.6) (Caenorhabditis elegans) (UniProt Q18248), entry TGTAACAA (double strand) [8-mer TGTAACAA]
Output: 0.483

Taken from paper PMC4434323.
